biological target: Mu-type opioid receptor (Cavia porcellus, UniProt P97266); experiment: Agonist activity at mu opioid receptor by guinea pig ileum assay
Sequence (P97266 whole entry): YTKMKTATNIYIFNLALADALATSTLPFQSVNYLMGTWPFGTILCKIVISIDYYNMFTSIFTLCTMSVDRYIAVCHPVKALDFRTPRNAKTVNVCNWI
Square brackets hold non-standard residues; d marks the D form. Peptide text beside a SMILES is read from it. * marks the point of attachment. Dmt = Cc1cc(O)cc(C)c1C[C@H](N)C(=O)O; Tic = O=C(O)[C@@H]1Cc2ccccc2CN1; NHBn = c1ccc(CN*)cc1; NHPh = c1ccc(N*)cc1
Metric name: IC50 (nM)
Provide the reading as a plain figure in nM.

Given the molecule Cc1cc(O)cc(C)c1C[C@H](N)C(=O)N[C@H]1Cc2ccccc2CN(CC(=O)NCc2ccccc2)C1=O , write its reported IC50.
51

Given Cc1cc(O)cc(C)c1C[C@H](N)C(=O)N[C@H]1Cc2ccccc2CN(CC(=O)Nc2ccccc2)C1=O , respond with its IC50.
95

Check the records and state IC50 for Cc1cc(O)cc(C)c1C[C@H](N)C(=O)N[C@H]1Cc2ccccc2CN(Cc2nc3ccccc3[nH]2)C1=O
231

Please look at this molecule and report its IC50: Cc1cc(O)cc(C)c1C[C@H](N)C(=O)N1Cc2ccccc2C[C@H]1C(=O)NCC(=O)Nc1ccccc1 (H-[Dmt]-[Tic]-Gly-NHPh)
2.57

Return IC50 (reported value) for this molecule: Cc1cc(O)cc(C)c1C[C@H](N)C(=O)N1Cc2ccccc2C[C@H]1C(=O)NCC(=O)NCc1ccccc1 (H-[Dmt]-[Tic]-Gly-NHBn)
2.69

###

target: Delta-type opioid receptor (Mus musculus); experiment: Agonist activity at delta opioid receptor by mouse vas deferens assay
Sequence (P32300 whole entry): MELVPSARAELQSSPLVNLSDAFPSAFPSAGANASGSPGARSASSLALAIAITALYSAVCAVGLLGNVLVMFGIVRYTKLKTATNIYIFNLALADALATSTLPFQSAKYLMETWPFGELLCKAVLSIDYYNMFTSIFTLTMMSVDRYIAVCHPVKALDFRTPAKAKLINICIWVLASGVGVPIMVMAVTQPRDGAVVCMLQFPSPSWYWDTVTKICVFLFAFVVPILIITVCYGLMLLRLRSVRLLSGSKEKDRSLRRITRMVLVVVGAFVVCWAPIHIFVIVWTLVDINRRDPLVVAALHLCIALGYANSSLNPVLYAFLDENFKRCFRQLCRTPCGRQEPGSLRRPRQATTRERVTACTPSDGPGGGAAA
Square brackets hold non-standard residues; d marks the D form. Peptide text beside a SMILES is read from it. * marks the point of attachment. Dmt = Cc1cc(O)cc(C)c1C[C@H](N)C(=O)O; Tic = O=C(O)[C@@H]1Cc2ccccc2CN1; NHPh = c1ccc(N*)cc1
Catalogue of compounds with associated IC50
Report as a plain number; the unit nM is understood.

Give a short answer stating reported IC50 for Cc1cc(O)cc(C)c1C[C@H](N)C(=O)N[C@H]1Cc2ccccc2CN(CC(=O)NCc2ccccc2)C1=O .
830

Read off the recorded IC50 for Cc1cc(O)cc(C)c1C[C@H](N)C(=O)N[C@H]1Cc2ccccc2CN(CC(=O)Nc2ccccc2)C1=O
650

Please supply the value of reported IC50 for the item Cc1cc(O)cc(C)c1C[C@H](N)C(=O)N1Cc2ccccc2C[C@H]1C(=O)NCC(=O)Nc1ccccc1 (H-[Dmt]-[Tic]-Gly-NHPh)
3.02

Entry Cc1cc(O)cc(C)c1C[C@H](N)C(=O)N[C@H]1Cc2ccccc2CN(Cc2nc3ccccc3[nH]2)C1=O needs its IC50 filled in; supply it.
2700
